Origin of measurements: ChEMBL document CHEMBL1250505

The reader will find reported zone of inhibition at 50 µg/mL values listed item by item below.
System: Pseudomonas aeruginosa
Test: Antibacterial activity against Pseudomonas aeruginosa at 50 ug/ml after 24 to 48 hrs by cup-plate method
Type: functional
Conditions: read-out: IZ

compound	test_target	zone of inhibition at 50 µg/mL
COC(=O)CCCSc1nnc(-c2cccc(-c3cccc(Cl)c3)c2)o1	Pseudomonas aeruginosa	6 mm
S=c1[nH]nc(-c2cccc(-c3cccc(Cl)c3)c2)o1	Pseudomonas aeruginosa	9 mm
COC(=O)CCCSc1nnc(-c2cccc(-c3ccccc3F)c2)o1	Pseudomonas aeruginosa	13 mm
Fc1ccccc1-c1cccc(-c2n[nH]c(=S)o2)c1	Pseudomonas aeruginosa	18 mm
COc1ccccc1-c1cccc(-c2n[nH]c(=S)o2)c1	Pseudomonas aeruginosa	11 mm
COc1ccc(F)cc1-c1cccc(-c2nnc(SCCCC#N)o2)c1	Pseudomonas aeruginosa	15 mm
COC(=O)CCCSc1nnc(-c2cccc(-c3cc(F)ccc3OC)c2)o1	Pseudomonas aeruginosa	13 mm
FCCCCSc1nnc(-c2cccc(-c3cccc(Cl)c3)c2)o1	Pseudomonas aeruginosa	15 mm
COc1ccc(F)cc1-c1cccc(-c2nnc(SCCCCF)o2)c1	Pseudomonas aeruginosa	7 mm
N#CCCCSc1nnc(-c2cccc(-c3cccc(Cl)c3)c2)o1	Pseudomonas aeruginosa	12 mm
FCCCCSc1nnc(-c2cccc(-c3ccccc3F)c2)o1	Pseudomonas aeruginosa	17 mm
COc1ccc(F)cc1-c1cccc(-c2n[nH]c(=S)o2)c1	Pseudomonas aeruginosa	14 mm
COc1ccccc1-c1cccc(-c2nnc(SCCCC#N)o2)c1	Pseudomonas aeruginosa	9 mm
COC(=O)CCCSc1nnc(-c2cccc(-c3ccccc3OC)c2)o1	Pseudomonas aeruginosa	18 mm
CN[C@@H]1[C@H](O[C@H]2[C@H](O[C@H]3[C@H](O)[C@@H](O)[C@H](N=C(N)N)[C@@H](O)[C@@H]3N=C(N)N)O[C@@H](C)[C@]2(O)C=O)O[C@@H](CO)[C@H](O)[C@H]1O [STREPTOMYCIN]	Pseudomonas aeruginosa	21 mm
N#CCCCSc1nnc(-c2cccc(-c3ccccc3F)c2)o1	Pseudomonas aeruginosa	16 mm
COc1ccccc1-c1cccc(-c2nnc(SCCCCF)o2)c1	Pseudomonas aeruginosa	6 mm

###

System: Bacillus subtilis
Test: Antibacterial activity against Bacillus subtilis at 50 ug/ml after 24 to 48 hrs by cup-plate method
Format: functional
Settings: read-out: IZ
Cut-off 10 mm on zone of inhibition at 50 µg/mL, inclusive. At or above means t; below means f.

smi	test_target	cat
COC(=O)CCCSc1nnc(-c2cccc(-c3ccccc3OC)c2)o1	Bacillus subtilis	t
COc1ccc(F)cc1-c1cccc(-c2n[nH]c(=S)o2)c1	Bacillus subtilis	t
COc1ccccc1-c1cccc(-c2nnc(SCCCC#N)o2)c1	Bacillus subtilis	t
FCCCCSc1nnc(-c2cccc(-c3cccc(Cl)c3)c2)o1	Bacillus subtilis	t
N#CCCCSc1nnc(-c2cccc(-c3cccc(Cl)c3)c2)o1	Bacillus subtilis	f
S=c1[nH]nc(-c2cccc(-c3cccc(Cl)c3)c2)o1	Bacillus subtilis	t
N#CCCCSc1nnc(-c2cccc(-c3ccccc3F)c2)o1	Bacillus subtilis	t
COC(=O)CCCSc1nnc(-c2cccc(-c3cc(F)ccc3OC)c2)o1	Bacillus subtilis	t
COc1ccc(F)cc1-c1cccc(-c2nnc(SCCCC#N)o2)c1	Bacillus subtilis	f
COc1ccccc1-c1cccc(-c2nnc(SCCCCF)o2)c1	Bacillus subtilis	t

###

System: Staphylococcus aureus
Assay: Antibacterial activity against Staphylococcus aureus at 100 ug/ml after 24 to 48 hrs by cup-plate method
Type: functional
Conditions: read-out: IZ
Below, each entry is listed with its recorded zone of inhibition at 100 µg/mL.
observation_type: zone of inhibition at 100 µg/mL

smi	assay_value
S=c1[nH]nc(-c2cccc(-c3cccc(Cl)c3)c2)o1	11 mm
COc1ccccc1-c1cccc(-c2n[nH]c(=S)o2)c1	18 mm
FCCCCSc1nnc(-c2cccc(-c3cccc(Cl)c3)c2)o1	12 mm
COc1ccccc1-c1cccc(-c2nnc(SCCCC#N)o2)c1	18 mm
N#CCCCSc1nnc(-c2cccc(-c3cccc(Cl)c3)c2)o1	15 mm
COc1ccc(F)cc1-c1cccc(-c2nnc(SCCCC#N)o2)c1	13 mm
FCCCCSc1nnc(-c2cccc(-c3ccccc3F)c2)o1	20 mm
COC(=O)CCCSc1nnc(-c2cccc(-c3cccc(Cl)c3)c2)o1	16 mm
COC(=O)CCCSc1nnc(-c2cccc(-c3ccccc3OC)c2)o1	14 mm
COc1ccc(F)cc1-c1cccc(-c2nnc(SCCCCF)o2)c1	15 mm
